Sourced from patent EP0540143B1

Measured inhibition at 10 µg/mL by item
Molecular target: recombinant HIV-RT (Human immunodeficiency virus type 1 group M subtype B, UniProt P04585)
Assay: Test I (HIVRT (rAdt)), direct inhibition of recombinant HIV-RT
Type: biochemical
Conditions: 10 µg/ml
Give just the number in %; leave the unit off.

| smiles input | endpoint value |
| --- | --- |
| S=C(NCCc1ccccc1)Nc1ccccc1 | 16 |
| S=C(NCCc1ccccc1)Nc1nc2ccccc2s1 | 40 |
| Cc1ccnc(NC(=S)NCCc2ccccc2)n1 | 9 |

Endpoint output: inhibition at 10 µg/mL of S=C(NCCc1ccccc1)Nc1cc[nH]n1 . Value? 38

Endpoint output: inhibition at 10 µg/mL of S=C(NCCc1ccccc1)Nc1nc(-c2ccc(Cl)cc2)cs1 . Value? 1

Endpoint output: inhibition at 10 µg/mL of CCCCCCCCCCCCCCc1sc(NC(=S)NCCc2ccccc2)nc1-c1ccc(Cl)cc1 . Value? 1
